Tested on: Par-4 secretion from mouse fibroblasts
Type: cell-based
endpoint name: Par-4 secretion activity (in words)

- CN(C)c1ccc2cc3c(nc(N)c4ccccc43)nc2c1: inactive
- CN(C)c1ccc2cc3c(nc2c1)[nH]c(=O)c1ccccc13: inactive
- Nc1nc2cccc(F)c2cc1-c1ccccc1F: equipotent to 1a
- Nc1nc2ccc(Cl)cc2cc1-c1ccccc1F: equipotent to 1a

---

Target: hERG potassium channel (Homo sapiens, UniProt Q12809)
Sequence (Q12809 whole entry): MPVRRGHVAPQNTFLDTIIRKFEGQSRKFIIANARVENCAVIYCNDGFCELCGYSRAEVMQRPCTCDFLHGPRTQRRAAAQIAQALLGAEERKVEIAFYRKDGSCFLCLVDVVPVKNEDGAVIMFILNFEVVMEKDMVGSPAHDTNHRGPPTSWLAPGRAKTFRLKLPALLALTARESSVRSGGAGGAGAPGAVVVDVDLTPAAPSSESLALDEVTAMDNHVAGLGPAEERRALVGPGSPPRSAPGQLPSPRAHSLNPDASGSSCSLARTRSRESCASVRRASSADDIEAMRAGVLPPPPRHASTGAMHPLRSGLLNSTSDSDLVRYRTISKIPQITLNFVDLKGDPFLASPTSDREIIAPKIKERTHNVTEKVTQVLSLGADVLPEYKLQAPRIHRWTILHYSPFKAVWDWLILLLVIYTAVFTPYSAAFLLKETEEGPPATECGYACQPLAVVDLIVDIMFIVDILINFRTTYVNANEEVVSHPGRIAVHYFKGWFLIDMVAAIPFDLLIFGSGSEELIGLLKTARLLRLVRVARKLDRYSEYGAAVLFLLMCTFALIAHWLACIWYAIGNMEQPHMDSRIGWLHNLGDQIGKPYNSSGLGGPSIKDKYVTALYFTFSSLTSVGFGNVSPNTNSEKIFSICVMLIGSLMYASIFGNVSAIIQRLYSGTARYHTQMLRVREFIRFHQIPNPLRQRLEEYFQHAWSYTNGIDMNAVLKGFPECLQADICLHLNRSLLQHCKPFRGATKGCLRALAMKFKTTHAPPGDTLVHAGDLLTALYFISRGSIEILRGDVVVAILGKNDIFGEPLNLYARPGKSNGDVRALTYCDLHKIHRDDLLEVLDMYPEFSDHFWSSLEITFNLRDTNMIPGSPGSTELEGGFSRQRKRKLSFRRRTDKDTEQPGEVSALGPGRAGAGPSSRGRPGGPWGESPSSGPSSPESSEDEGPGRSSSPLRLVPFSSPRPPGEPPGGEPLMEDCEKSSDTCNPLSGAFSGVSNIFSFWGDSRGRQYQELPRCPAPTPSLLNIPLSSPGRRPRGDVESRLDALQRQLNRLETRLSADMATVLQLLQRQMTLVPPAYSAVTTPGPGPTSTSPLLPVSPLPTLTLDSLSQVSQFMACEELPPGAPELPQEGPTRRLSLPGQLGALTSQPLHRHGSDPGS
endpoint name: pIC50
// scale note: pIC50 = -log10(conc_M); give the bare number

Examples with their reported pIC50 follow.
• CN(C)c1ccc2cc(-c3ccccc3F)c(N3CCOCC3)nc2c1 [compound 10] = 4.63
• CN(C)c1ccc2cc(-c3cccc(F)c3)c(N)nc2c1 [1d] = 5.80
• Nc1nc2ccccc2cc1-c1ccccc1F [compound 12, 3-(2-Fluorophenyl)quinolin-2-amine] = 4.84

Inquiry: Any idea what pIC50 came out for CN(C)c1ccc2cc(-c3ccc(F)cc3)c(N)nc2c1 [1f] on hERG potassium channel (Homo sapiens, UniProt Q12809)?
Reply text: 4.52
